Target: Dopamine D2 receptor (Rattus norvegicus)
Sequence (P61169 whole entry): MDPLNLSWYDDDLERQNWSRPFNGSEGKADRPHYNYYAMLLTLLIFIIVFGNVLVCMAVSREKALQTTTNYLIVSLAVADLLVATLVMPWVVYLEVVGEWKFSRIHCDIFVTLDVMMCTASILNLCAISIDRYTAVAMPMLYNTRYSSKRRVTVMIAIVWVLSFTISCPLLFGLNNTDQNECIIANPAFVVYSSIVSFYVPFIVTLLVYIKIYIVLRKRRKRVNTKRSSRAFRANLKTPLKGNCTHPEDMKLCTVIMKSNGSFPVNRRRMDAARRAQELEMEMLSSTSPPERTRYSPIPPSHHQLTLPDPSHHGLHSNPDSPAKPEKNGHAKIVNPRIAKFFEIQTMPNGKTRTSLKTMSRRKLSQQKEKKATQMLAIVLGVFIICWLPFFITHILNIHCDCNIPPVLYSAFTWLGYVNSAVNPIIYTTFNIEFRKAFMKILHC
Assay: In-Vitro Inhibition of Dopamine D2 Receptor Binding (3H-Spiroperidol)
Settings: 3H-Spiroperidol 0.05 nM, rat striatum, 37° C., 20 min
pIC50: −log10 of the molar value. Structures can show the parent of a compound that is named as a salt.
# key: entry, value: pIC50
measure: pIC50

O=C(Nc1ccc2ncsc2c1)OCCCN1CCN(c2ccc(Cl)cc2)CC1 [Example 19, hydrochloride]: 6.82
COc1cc(NC(=O)OCCCN2CCN(c3ccccc3Cl)CC2)cc(OC)c1OC.Cl [Example 3, hydrochloride]: 6.92
COc1cc(NC(=O)OCCCN2CCN(c3ccc(F)cc3)CC2)cc(OC)c1OC [Example 8, hydrochloride]: 6.14
COc1ccc2cccc(N3CCN(CCCOC(=O)Nc4ccc5c(c4)OCO5)CC3)c2c1 [Example 34, HCl]: 8.37

###

Molecular target: 5HT1A receptor (Rattus norvegicus, UniProt P19327)
Counter-ions that a name gives are not always drawn.
measure: IC50 (µM)

COc1ccc2cccc(N3CCN(CCCOC(=O)Nc4ccc5c(c4)OCO5)CC3)c2c1 [Example 34, HCl]: 0.0016
COc1cc(NC(=S)OCCCN2CCN(c3ccccc3Cl)CC2)cc(OC)c1OC [Example 24, hydrochloride]: 0.061

###

# key: entry, value: IC50
Target: Alpha1 receptor
Experiment: In-Vitro Inhibition of Alpha1-Receptor Binding (3H-Prazosin)
Conditions: 3H-Prazosin 0.5 nM, rat cortex, 25° C., 30 min; read-out: Receptor binding IC50 α1
Where a name gives a salt, the structure may show the parent alone.
measure: IC50 (nM)

COc1cc(NC(=O)OCCCN2CCN(c3ccccc3Cl)CC2)cc(OC)c1OC.Cl [Example 3, hydrochloride]: 45
COc1ccc2cccc(N3CCN(CCCOC(=O)Nc4ccc5c(c4)OCO5)CC3)c2c1 [Example 34, HCl]: 144
COc1cc(NC(=O)OCCCN2CCN(c3ccc(F)cc3)CC2)cc(OC)c1OC [Example 8, hydrochloride]: 61
COc1cc(NC(=S)OCCCN2CCN(c3ccccc3Cl)CC2)cc(OC)c1OC [Example 24, hydrochloride]: 7.5
O=C(Nc1ccc2ncsc2c1)OCCCN1CCN(c2ccc(Cl)cc2)CC1 [Example 19, hydrochloride]: 122

###

Target protein (sequence): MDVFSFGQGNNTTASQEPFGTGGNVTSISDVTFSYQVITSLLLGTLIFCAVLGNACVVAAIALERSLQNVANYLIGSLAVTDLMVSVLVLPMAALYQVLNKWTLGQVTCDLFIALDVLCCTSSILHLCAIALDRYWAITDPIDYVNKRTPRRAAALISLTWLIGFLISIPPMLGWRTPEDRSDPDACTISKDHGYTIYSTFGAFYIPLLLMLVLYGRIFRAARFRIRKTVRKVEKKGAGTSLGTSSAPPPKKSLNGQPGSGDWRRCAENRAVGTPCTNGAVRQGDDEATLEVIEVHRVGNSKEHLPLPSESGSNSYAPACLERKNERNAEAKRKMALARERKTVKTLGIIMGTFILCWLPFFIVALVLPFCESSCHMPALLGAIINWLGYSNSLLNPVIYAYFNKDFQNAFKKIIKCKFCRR
pIC50: −log10 of the molar value. Where a name gives a salt, the structure may show the parent alone.
measure: pIC50

O=C(Nc1ccc2ncsc2c1)OCCCN1CCN(c2ccc(Cl)cc2)CC1 [Example 19, hydrochloride]: < 6.00
COc1cc(NC(=O)OCCCN2CCN(c3ccc(F)cc3)CC2)cc(OC)c1OC [Example 8, hydrochloride]: < 6.00
COc1cc(NC(=O)OCCCN2CCN(c3ccccc3Cl)CC2)cc(OC)c1OC.Cl [Example 3, hydrochloride]: < 6.52
